Source of measurements: patent US7135466B2

target: human KDR (Homo sapiens); construct: expressed in transfected cells; host or cells: NIH 3T3 cells; experiment: Inhibitory activity against KDR phosphorylation (NIH 3T3 cells transfected with human KDR, VEGF); format: cell-based; conditions: VEGF 100 ng/ml
Sequence (P35968 20-1356): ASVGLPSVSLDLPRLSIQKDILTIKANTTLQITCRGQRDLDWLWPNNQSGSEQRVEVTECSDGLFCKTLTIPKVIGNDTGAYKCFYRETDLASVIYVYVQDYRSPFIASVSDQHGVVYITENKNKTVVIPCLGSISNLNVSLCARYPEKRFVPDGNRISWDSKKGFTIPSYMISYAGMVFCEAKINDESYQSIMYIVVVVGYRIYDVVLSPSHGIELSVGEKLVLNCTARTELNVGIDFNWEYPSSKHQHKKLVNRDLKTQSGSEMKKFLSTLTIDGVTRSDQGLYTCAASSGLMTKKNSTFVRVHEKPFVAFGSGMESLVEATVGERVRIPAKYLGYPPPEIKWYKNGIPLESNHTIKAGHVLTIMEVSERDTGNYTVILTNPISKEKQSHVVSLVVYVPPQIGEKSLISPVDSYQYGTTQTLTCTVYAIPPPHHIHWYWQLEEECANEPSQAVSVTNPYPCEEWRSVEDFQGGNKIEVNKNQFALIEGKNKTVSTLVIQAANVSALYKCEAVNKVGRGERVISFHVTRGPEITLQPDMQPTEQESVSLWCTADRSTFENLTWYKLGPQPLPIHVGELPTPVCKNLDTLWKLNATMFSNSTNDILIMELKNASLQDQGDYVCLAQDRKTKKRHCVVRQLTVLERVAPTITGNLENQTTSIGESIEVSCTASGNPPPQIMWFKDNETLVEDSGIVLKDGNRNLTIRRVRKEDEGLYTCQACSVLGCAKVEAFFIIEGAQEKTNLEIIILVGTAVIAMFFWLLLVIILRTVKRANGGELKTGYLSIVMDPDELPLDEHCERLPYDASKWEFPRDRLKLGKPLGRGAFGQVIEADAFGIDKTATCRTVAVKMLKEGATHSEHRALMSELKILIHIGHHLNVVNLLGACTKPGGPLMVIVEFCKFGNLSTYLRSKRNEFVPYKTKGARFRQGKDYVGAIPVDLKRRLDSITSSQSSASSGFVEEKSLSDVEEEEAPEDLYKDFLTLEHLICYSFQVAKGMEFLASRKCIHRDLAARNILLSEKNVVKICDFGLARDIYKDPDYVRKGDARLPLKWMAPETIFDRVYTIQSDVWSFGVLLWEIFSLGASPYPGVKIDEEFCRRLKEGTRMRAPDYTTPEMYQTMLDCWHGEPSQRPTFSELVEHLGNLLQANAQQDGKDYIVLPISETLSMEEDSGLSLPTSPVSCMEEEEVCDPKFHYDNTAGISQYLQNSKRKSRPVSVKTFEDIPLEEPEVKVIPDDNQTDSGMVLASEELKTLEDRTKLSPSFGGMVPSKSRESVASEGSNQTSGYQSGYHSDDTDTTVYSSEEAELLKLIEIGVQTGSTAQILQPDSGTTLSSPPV
READOUT_NAME: IC50 (nM)

>>> endpoint_value("COc1cc2nccc(Oc3ccc(NC(=S)NC(=O)c4ccccc4C)cc3)c2cc1OC [Example 614]")
47

A. COc1cc2nccc(Oc3ccc(NC(=O)OCCCN4CCOCC4)cc3)c2cc1OC [Example 421]
B. COc1cc2nccc(Oc3ccc(NC(=S)NC(=O)Cc4ccccc4)cc3F)c2cc1OC [Example 615]
C. COc1cc2ncnc(Oc3ccc(NC(=O)NCCN4CCCCC4)c([N+](=O)[O-])c3)c2cc1OC [Example 679]
D. C#CCC(CC)OC(=O)Nc1ccc(Oc2ccnc3cc(OC)c(OC)cc23)cc1 (centres unmarked) [Example 408]
I would appreciate it if you could sort these 4 molecules by IC50, starting from the smallest number. Your task in answering is to list the labels in the requested order.
B, D, C, A
(B: 37 nM, D: 108 nM, C: 323 nM, A: 692 nM)
